tested on: NCI-H226; test: NCI tumour cell line growth inhibition, 48 h
The source made the active and inactive calls. Rule as the data show it: active = GI50 up to about 1.1 µM and inactive = higher.
measurement_name: GI50

{"columns": ["molecule", "measured_on", "reading"],
 "data": [
  ["CC1(C)C(C#N)C1C1=C(N2CCOCC2)[C@]2(C)C(OC(=O)c3ccccc3)CC[C@@H]2C1 (stereo not given in full)", "NCI-H226", "> 100 µM (inactive)"],
  ["O=C(Nc1ccn(C2CC(O)C(COC(c3ccccc3)(c3ccccc3)c3ccccc3)O2)c(=O)n1)c1ccccc1 (stereo not given)", "NCI-H226", "11 µM (inactive)"],
  ["CC(C(=O)O)c1ccc(-c2ccccc2)c(F)c1 (stereo not given) [FLURBIPROFEN]", "NCI-H226", "> 100 µM (inactive)"],
  ["CN1c2ccccc2N(C(=O)c2ccc([N+](=O)[O-])cc2)C(CC(=O)O)c2cccn21 (stereo not given)", "NCI-H226", "> 100 µM (inactive)"],
  ["O=C1NC(=O)C(c2c[nH]c3ccccc23)=C1c1cnc[nH]1", "NCI-H226", "1.79 µM (inactive)"],
  ["COc1cc2c(cc1OC)-c1c3c(cc4c1[C@@H](C2)N(C)CC4)OCO3", "NCI-H226", "7.06 µM (inactive)"],
  ["Cc1cccc(C)c1NC(=O)CCC(=O)/N=C(\\N)NC#N", "NCI-H226", "> 100 µM (inactive)"],
  ["CC(C)C(=O)Nc1cc(C(F)(F)F)ccc1[N+](=O)[O-]", "NCI-H226", "> 100 µM (inactive)"],
  ["Clc1ccc(OCc2nnc3n2N=C(c2ccccc2)CS3)cc1", "NCI-H226", "21.5 µM (inactive)"],
  ["COc1ccc2cc(C(C)C(=O)N3CCOC3=O)ccc2c1 (stereo not given)", "NCI-H226", "> 100 µM (inactive)"]
]}

====

Property: GI50; scope: individual compounds
system: TK-10; experiment: NCI tumour cell line growth inhibition, 48 h
Calls of active or inactive are those of the source. Cut-off read from the data, not from the text of the source: active = GI50 up to about 1.1 µM and inactive = higher.

{"columns": ["compound", "measured_on", "GI50"],
 "data": [
  ["O=C(OCC(Cl)(Cl)Cl)O[C@@H]1CCCC1(c1ccccc1)c1ccccc1", "TK-10", "> 100 µM (inactive)"],
  ["CCOC(=O)C(=[N+]=[N-])C(=O)C[N+]12CCN(CC1)CC2", "TK-10", "> 100 µM (inactive)"],
  ["CN(N)c1cc(=O)[nH]c(=O)[nH]1", "TK-10", "> 100 µM (inactive)"],
  ["COc1ccc(Nc2nc3ccccc3nc2C(=O)O)cc1OC", "TK-10", "82.8 µM (inactive)"],
  ["O=[N+]([O-])c1cccc(/N=N/c2c(O)c(S(=O)(=O)O)cc3cc(S(=O)(=O)O)ccc23)c1", "TK-10", "> 100 µM (inactive)"],
  ["O=C1NC2(CN3CCC2CC3)C(=O)N1CN(Cc1ccccc1)c1ccccc1 (stereo unspecified)", "TK-10", "> 100 µM (inactive)"],
  ["Oc1c(C2=NNC(c3ccc(Cl)cc3Cl)C2)ccc2ccccc12 (stereo unspecified)", "TK-10", "66.2 µM (inactive)"],
  ["O=C1c2cccc3cccc(c23)C(=O)N1O", "TK-10", "> 100 µM (inactive)"],
  ["Cc1nc(N)nc2ccccc12", "TK-10", "> 100 µM (inactive)"],
  ["O=C1/C(=C/c2ccc(Cl)c(Cl)c2)CNC/C1=C\\c1ccc(Cl)c(Cl)c1", "TK-10", "31 µM (inactive)"],
  ["Fc1cccc(C2ON=C(c3ccccc3)N2C23CC4CC(CC(C4)C2)C3)c1 (stereo unspecified)", "TK-10", "> 10 µM (inactive)"]
]}

====

tested on: TK-10; assay: NCI tumour cell line growth inhibition, 48 h
The source made the active and inactive calls. Rule as the data show it: active = GI50 up to about 1.1 µM and inactive = higher.
Outcomes: active, inactive

{"columns": ["compound", "measured_on", "answer_label"],
 "data": [
  ["CC1NOC(=O)C1/N=N/c1ccccc1Br (stereo unspecified)", "TK-10", "inactive"],
  ["CC(C)C(=O)Nc1cc(C(F)(F)F)ccc1[N+](=O)[O-]", "TK-10", "inactive"],
  ["Cn1cc(C2(C)CC(C)(C)c3c2n(C)c2ccccc32)c2ccccc21 (stereo unspecified)", "TK-10", "inactive"],
  ["COC(=O)[C@@]12C(=O)C=CC(=O)[C@@H]1C1C(=CC2COC(C)=O)O[C@@H]2OC3(CCCCC3)O[C@H]12 (stereo partly specified)", "TK-10", "inactive"],
  ["Oc1ccccc1/C=N/N1C(=S)N(C23CC4CC(CC(C4)C2)C3)C(=N\\c2ccccc2)/C1=N/c1ccccc1", "TK-10", "inactive"],
  ["S=C1/C(=N/c2ccccc2)N(C2CCCCC2)/C(=N\\C2CCCCC2)N1c1ccccc1", "TK-10", "inactive"],
  ["CC1(C)C(C#N)C1C1=C(N2CCOCC2)[C@]2(C)C(OC(=O)c3ccccc3)CC[C@@H]2C1 (stereo partly specified)", "TK-10", "inactive"],
  ["COc1cc2c(c(OC)c1OC)-c1ccc(SC)c(=O)cc1[C@@H](NC(=O)c1ccc(F)cc1)CC2", "TK-10", "active"],
  ["Cc1ccc(S(=O)(=O)OCC(=O)O)cc1", "TK-10", "inactive"],
  ["O=C1c2cc(Cl)ccc2-n2c(noc2=O)C2CSCN12 (stereo unspecified)", "TK-10", "inactive"],
  ["CN1C(=O)C(=CN(C)c2ccccc2)C(=O)N(C)C1=O", "TK-10", "inactive"],
  ["O=C1N/C(=N/N=C/C(O)C(O)C(O)C(O)CO)N/C1=C\\c1cccs1 (stereo unspecified)", "TK-10", "inactive"],
  ["COC(=O)C#CCC1CCCC1C1SCCS1 (stereo unspecified)", "TK-10", "inactive"],
  ["Nc1ccc(-c2nc3cc(F)ccc3s2)cc1", "TK-10", "inactive"],
  ["COc1nc(C(=O)NNC(=O)c2nc(OC)c3ccccc3c2-c2ccccc2)c(-c2ccccc2)c2ccccc12", "TK-10", "inactive"],
  ["OCC1=C[C@@](COCc2ccccc2)(OCc2ccccc2)[C@@H](OCc2ccccc2)[C@@H]1OCc1ccccc1", "TK-10", "inactive"],
  ["COc1ccc(/C=C(\\C2=NC(=O)CS2)c2nc3ccccc3[nH]2)cc1", "TK-10", "inactive"],
  ["CCOC(=O)c1sc2c(c1OC(=O)c1ccc(OC)cc1)c(=O)n(-c1ccccc1)c(=S)n2-c1ccccc1", "TK-10", "inactive"],
  ["O=[N+]([O-])c1ccc(-n2nnc(C3=NCCN3)c2-c2ccccc2)cc1", "TK-10", "inactive"],
  ["C=CCCCCC1CCC2CCC(CCCCC=C)N12 (stereo unspecified)", "TK-10", "inactive"],
  ["CN(C)CCCOC(=O)C(c1ccccc1)C1(O)CCSCC1 (stereo unspecified)", "TK-10", "inactive"]
]}

====

Quick reference for GI50 among some compounds
system: RPMI-8226; assay: NCI tumour cell line growth inhibition, 48 h
Active and inactive are the calls of the source. Rule as the data show it: active = GI50 up to about 1.1 µM and inactive = higher.

{"columns": ["compound", "GI50"],
 "data": [
  ["Cc1ccc(/C=C2\\Cc3c(C)cc(C)cc3C2=O)c(C(=O)O)c1", "19.3 µM (inactive)"],
  ["COc1c2c(cc3c1C(O)N1CC[C@]34[C@H]3O[C@H]3[C@H](OC)C[C@@H]14)OCO2 (stereo not given in full)", "82 µM (inactive)"],
  ["[N-]=[N+]=NC1C(O)C(CO)OC1n1ccc(=O)[nH]c1=O (stereo not given)", "> 875 µM (inactive)"],
  ["COC1O[C@H]2CCN(C(=O)OCc3ccccc3)[C@H]2[C@H]1OCc1ccccc1 (stereo not given in full)", "41 µM (inactive)"],
  ["O=[N+]([O-])c1ccc(Cl)cc1N/N=C/c1cccc2cccnc12", "20.3 µM (inactive)"],
  ["COC(=O)[C@]12C3=C(O)C(=O)C[C@H]1OC[C@H]2C=CC3", "> 100 µM (inactive)"],
  ["COc1cc(-c2nc3cc(F)ccc3s2)ccc1O", "41.1 µM (inactive)"],
  ["COc1ccc2c(-c3ccc(O)cc3)c(Oc3ccc(Cl)cc3)c(=O)oc2c1", "3.99 µM (inactive)"],
  ["CCOc1ccccc1NC(=O)C1=C(C)NC(C)=C(C(=O)Nc2ccccc2OCC)C1c1cccc([N+](=O)[O-])c1", "8.22 µM (inactive)"],
  ["COc1ccc(C(=O)/C=C/S/C(=N/C#N)SC)cc1", "4.33 µM (inactive)"]
]}

====

tested on: HCT-116; assay: NCI tumour cell line growth inhibition, 48 h
Activity calls are given as the source filed them. Cut-off read from the data, not from the text of the source: active = GI50 up to about 1.1 µM and inactive = higher.
Listed below: GI50 values for each entry.

{"columns": ["molecule", "GI50"],
 "data": [
  ["IC[P+]1(c2ccccc2)CCCC1", "49.8 µM (inactive)"],
  ["O=C1C2C(C(=O)N1c1ccccc1)C1([N+](=O)[O-])C=C3c4ccccc4N(C(=O)c4ccccc4)C32C2C(=O)N(c3ccccc3)C(=O)C21 (centres undefined)", "> 100 µM (inactive)"],
  ["COc1cc(CC2CC(c3ccc4c(c3)OCO4)OC2=O)cc(OC)c1OC (centres undefined)", "> 100 µM (inactive)"],
  ["CO[C@@H](c1ccccc1)[C@H](O)[C@](O)(c1ccccc1)P(=O)(OC)OC", "> 100 µM (inactive)"],
  ["CCOC(=O)c1oc2cc3c(c4c2c1-c1ccccc1N4C)C=CC(C)(C)O3", "14.2 µM (inactive)"],
  ["C=C1C(=O)O[C@H]2[C@H]3O[C@@H](C[C@@H]12)[C@](C)(O)CCCC(C)=CCC[C@H]3C", "13.6 µM (inactive)"],
  ["CC1(C)C(C#N)C1C1=C(N2CCOCC2)[C@]2(C)C(OC(=O)c3ccccc3)CC[C@@H]2C1 (some centres undefined)", "33.7 µM (inactive)"],
  ["CCOC(=O)c1sc2c(c1OC(=O)c1ccc(OC)cc1)c(=O)n(-c1ccccc1)c(=S)n2-c1ccccc1", "20.7 µM (inactive)"],
  ["[N-]=[N+]=NC(CI)c1cn([C@H]2C[C@H](O)[C@@H](CO)O2)c(=O)[nH]c1=O (some centres undefined)", "> 100 µM (inactive)"]
]}

Where do these numbers come from? They come from ChEMBL document CHEMBL1201862.
